# Assay Protocol: Relative bioavailability of tablet versus oral solution, single 5 mg dose
# Assay type: in vivo, human
# Experimental Context: human, plasma, oral, 5 mg, tablet, read-out: AUC0-t, GM (Geo. CV %)
Recorded Metric: AUC(0-t)
Please format your answer as a value with the unit trailing.

Exercise: Given the compound CCC(=O)N[C@@H]1CCCc2c(-c3ccc4c(c3)CCC(=O)N4C)cncc21 [(R)-Compound 1] , what is its reported AUC(0-t)?
Key: 1580 ng·h/mL

====

# Assay Protocol: Single-ascending dose (SAD) study in healthy subjects: plasma and urine pharmacokinetics
# Experimental Context: human, in vivo, po, 10 mg
# Method: A second, generally lower peak was often observed at 3 to 4 hours postdose. A second, generally lower peak was often observed at 3 to 4 hours post-dose. […] Over the anticipated therapeutically relevant dose range (through 10 mg), peak and overall exposures (as assessed by Cmax and area under the concentration-time curve [AUC]) increased in a generally dose-proportional manner. Single- and Multiple-Dose Plasma Pharmacokinetics of (R)-compound 1. […]
Recorded Metric: half-life (h)
Give just the numeric value; h need not be written.

Exercise: Given the molecule CCC(=O)N[C@@H]1CCCc2c(-c3ccc4c(c3)CCC(=O)N4C)cncc21 [(R)-Compound 1] , what is its reported half-life?
Key: 30.7

====

# Assay Protocol: Single-ascending dose (SAD) study in healthy subjects: plasma and urine pharmacokinetics
# Experimental Context: human, in vivo, po, 180 mg
# Procedure: A second, generally lower peak was often observed at 3 to 4 hours postdose. A second, generally lower peak was often observed at 3 to 4 hours post-dose. […] Over the anticipated therapeutically relevant dose range (through 10 mg), peak and overall exposures (as assessed by Cmax and area under the concentration-time curve [AUC]) increased in a generally dose-proportional manner. Single- and Multiple-Dose Plasma Pharmacokinetics of (R)-compound 1. […]
Recorded Metric: Tmax (h)
Give just the numeric value; h need not be written.

Exercise: Given the compound CCC(=O)N[C@@H]1CCCc2c(-c3ccc4c(c3)CCC(=O)N4C)cncc21 [(R)-Compound 1] , what is its reported Tmax?
Key: 1

====

# Assay Protocol: Single-ascending dose (SAD) study in healthy subjects: plasma and urine pharmacokinetics
# Experimental Context: human, in vivo, po, 90 mg
Recorded Metric: Tmax

Exercise: Given the compound CCC(=O)N[C@@H]1CCCc2c(-c3ccc4c(c3)CCC(=O)N4C)cncc21 [(R)-Compound 1] , what is its reported Tmax?
Key: 1.25 h

====

# Assay Protocol: Multiple-ascending dose (MAD) study, once daily for 10 days in healthy subjects: plasma pharmacokinetics
# Assay type: in vivo, human
# Experimental Context: human, plasma, oral, 2.5 mg, 2.5 mg QD, normal salt diet; Day 10; mean (CV %); read-out: Vss/F
Recorded Metric: Vd/F (L)
Give just the numeric value; L need not be written.

Exercise: Given the compound CCC(=O)N[C@@H]1CCCc2c(-c3ccc4c(c3)CCC(=O)N4C)cncc21 [(R)-Compound 1] , what is its reported Vd/F?
Key: 150

====

# Assay Protocol: Relative bioavailability of tablet versus oral solution, single 5 mg dose
# Assay type: in vivo, human
# Experimental Context: human, plasma, po, 5 mg, oral solution, read-out: AUC0-inf, GM (Geo. CV %)
Recorded Metric: AUC(0-inf) (ng·h/mL)
Give just the numeric value; ng·h/mL need not be written.

Exercise: Given the compound CCC(=O)N[C@@H]1CCCc2c(-c3ccc4c(c3)CCC(=O)N4C)cncc21 [(R)-Compound 1] , what is its reported AUC(0-inf)?
Key: 1710
